The measurements presented in this section are drawn from patent US12233161B1.

test system: mice; assay: In vivo delivery of FLuc-mRNA lipid nanoparticles in mice, in vivo imaging (IVIS); conditions: IV, lung; DMG-PEG2000:DSPC:Chol:compound 1.40:11.15:38.95:48.50, N/P 30; Fluc-mRNA
Here the recorded IVIS is given for each entry.
Number only, no unit.

CCCCCCOC(C)OCCCCCCOC(=O)C(O)CN(CCCN(CC(O)C(=O)OCCCCCCOC(C)OCCCCCC)CC(O)C(=O)OCCCCCCOC(C)OCCCCCC)CCCN(CC(O)C(=O)OCCCCCCOC(C)OCCCCCC)CC(O)C(=O)OCCCCCCOC(C)OCCCCCC (centres unmarked) [Compound L0340]; 6.29E+05

Proceed to the following item.
Qu. Please report the measured IVIS for CCCCCCCCCCOC(=O)C(O)CN(CCCN(CC(O)C(=O)OCCCCCCCCCC)CC(O)C(=O)OCCCCCCCCCC)CCCN(CC(O)C(=O)OCCCCCCCCCC)CC(O)C(=O)OCCCCCCCCCC (centres unmarked) [Compound L0339]
Ans. 1.67E+05
